# target_system: cIAP1-BIR3 (Homo sapiens (Human), UniProt Q13490)
# Sequence (Q13490 253-363): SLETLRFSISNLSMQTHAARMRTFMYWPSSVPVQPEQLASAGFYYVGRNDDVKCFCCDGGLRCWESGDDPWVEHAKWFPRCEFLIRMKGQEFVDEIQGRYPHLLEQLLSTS
# assay_procedure: BIR binding assay (FRET competition), cIAP1 BIR3
property_measured: IC50

compound: COc1cc(Cl)ccc1Cc1cc2c([nH]c1=O)C(C)(C)CN2C(=O)CN1C[C@@H](C)NC[C@@H]1CN1CCO[C@H](C(=O)NCc2ccc(CNC(=O)[C@@H]3CN(C[C@H]4CN[C@H](C)CN4CC(=O)N4CC(C)(C)c5[nH]c(=O)c(Cc6ccc(Cl)cc6OC)cc54)CCO3)cc2)C1
IC50: 7.94 to 15.8 nM
//
compound: C[C@@H]1CN(CC(=O)N2CC(C)(C)c3[nH]c(=O)c(Cc4ccc(F)cc4)cc32)[C@@H](CN2CCO[C@@H](COCCCCOC[C@H]3CN(C[C@H]4CN[C@H](C)CN4CC(=O)N4CC(C)(C)c5[nH]c(=O)c(Cc6ccc(F)cc6)cc54)CCO3)C2)CN1
IC50: 7.94 to 15.8 nM
//
compound: C[C@@H]1CN(CC(=O)N2CC(C)(C)c3[nH]c(=O)c(Cc4ccc(F)cc4)cc32)[C@@H](CN2CCN(C(=O)COCCOCCOCC(=O)N3CCN(C[C@H]4CN[C@H](C)CN4CC(=O)N4CC(C)(C)c5[nH]c(=O)c(Cc6ccc(F)cc6)cc54)[C@H](C)C3)C[C@H]2C)CN1 (stereo in doubt)
IC50: 1.38 to 7.94 nM

Let us move to another entry and its IC50.
// Input: C[C@@H]1CN(CC(=O)N2CC(C)(C)c3[nH]c(=O)c(Cc4ccc(F)cc4)cc32)[C@@H](CN2CCO[C@H](C(=O)NCCCCNC(=O)[C@@H]3CN(C[C@H]4CN[C@H](C)CN4CC(=O)N4CC(C)(C)c5[nH]c(=O)c(Cc6ccc(F)cc6)cc54)CCO3)C2)CN1 . Output its IC50 only. 7.94 to 15.8 nM

* * *

# target_system: cIAP2-BIR3 (Homo sapiens (Human))
# Sequence (Q13489 238-349): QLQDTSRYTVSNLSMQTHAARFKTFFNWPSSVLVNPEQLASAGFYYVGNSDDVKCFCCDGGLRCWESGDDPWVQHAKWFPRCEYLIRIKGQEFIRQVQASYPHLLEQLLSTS
# assay_procedure: BIR binding assay (FRET competition), cIAP2 BIR3
pIC50: −log10 of the molar value.
# key: entry, value: pIC50

compound: C[C@@H]1CN(CC(=O)N2CC(C)(C)c3ncc(Oc4ccc(F)cc4)cc32)[C@@H](CN2CCO[C@H](COc3cccc(OC[C@@H]4CN(C[C@H]5CN[C@H](C)CN5CC(=O)N5CC(C)(C)c6ncc(Oc7ccc(F)cc7)cc65)CCO4)c3)C2)CN1 [Compound 142]
target_system: cIAP2-BIR3 (Homo sapiens (Human))
pIC50: 7.50 to 7.80

compound: C[C@@H]1CN(CC(=O)N2CC(C)(C)c3[nH]c(=O)c(Cc4ccc(F)cc4)cc32)[C@@H](CN2CCN(C(=O)/C=C/c3ccc(/C=C/C(=O)N4CCN(C[C@H]5CN[C@H](C)CN5CC(=O)N5CC(C)(C)c6[nH]c(=O)c(Cc7ccc(F)cc7)cc65)[C@H](C)C4)cc3)C[C@H]2C)CN1 [Example 14]
target_system: cIAP2-BIR3 (Homo sapiens (Human))
pIC50: 7.50 to 7.80

compound: C[C@@H]1CN(CC(=O)N2CC(C)(C)c3[nH]c(=O)c(Cc4ccc(F)cc4)cc32)[C@@H](CN2CCO[C@H](COc3ccc(OC[C@@H]4CN(C[C@H]5CN[C@H](C)CN5CC(=O)N5CC(C)(C)c6[nH]c(=O)c(Cc7ccc(F)cc7)cc65)CCO4)cc3)C2)CN1 [Example 70]
target_system: cIAP2-BIR3 (Homo sapiens (Human))
pIC50: 7.80 to 8.10

Now examine the next entry.
Fill in pIC50 for C[C@@H]1CN(CC(=O)N2CC(C)(C)c3[nH]c(=O)c(Cc4ccc(F)cc4)cc32)[C@@H](CN2CCC[C@@H](NC(=O)CCCCCCC(=O)N[C@@H]3CCCN(C[C@H]4CN[C@H](C)CN4CC(=O)N4CC(C)(C)c5[nH]c(=O)c(Cc6ccc(F)cc6)cc54)C3)C2)CN1 [Example 44] tested with cIAP2-BIR3 (Homo sapiens (Human)). 7.50 to 7.80
